tested on: A. baumannii strain 5075 (AB5075); assay: Clarithromycin potentiation against AB5075 (CLR MIC in presence of adjuvant); assay type: cell-based, Acinetobacter baumannii; conditions: adjuvant at 30 μM, AB5075
METRIC NAME: Fold Reduction of CLR MIC (fold)

[
  {
    "COMPOUND": "Nc1nc(-c2ccc(NC(=O)Nc3ccc(F)c(-c4c[nH]c(N)n4)c3)cc2F)c[nH]1 [Compound 9h]",
    "VALUE OBSERVED": 64
  },
  {
    "COMPOUND": "Cc1cc(-c2c[nH]c(N)n2)ccc1NC(=O)Nc1ccc(-c2c[nH]c(N)n2)cc1C [Compound 14c]",
    "VALUE OBSERVED": 1
  },
  {
    "COMPOUND": "Nc1nc(-c2ccc(NC(=O)Nc3cccc(-c4c[nH]c(N)n4)c3)cc2)c[nH]1 [Compound 4]",
    "VALUE OBSERVED": 256
  }
]

I = Nc1nc(-c2cccc(NC(=O)Nc3cccc(-c4c[nH]c(N)n4)c3F)c2F)c[nH]1 [Compound 9f]
II = Nc1nc(-c2ccc(NC(=O)Nc3ccc(-c4c[nH]c(N)n4)c(F)c3)cc2)c[nH]1 [Compound 9m]
Query: Please indicate which item has the smaller measured Fold Reduction of CLR MIC: I versus II Answer by quoting the chosen item's label.
Reply: I
